The reported numbers originate from patent US20250171516A1.

# assayed system: GLP-1R of the cAMP assay of Tables 10, 14 and 15 (human, UniProt P43220 24-463, limits assumed)
# experimental details: cell-based or functional assay
Non-standard residues stand in square brackets, D forms with d. No end group written: not given here. AA10 = not defined here; AA2 = not defined here; AA6 = not defined here; AA9 = not defined here
parameter: GLP-1R CAMP EC50 (nM)
Give bare numbers, in nM.

Which GLP-1R CAMP EC50 value is on record for [AA10][AA9]GT[AA6]TSD[AA2](Leu)-OH (reading uncertain; also: printed as M6324 (AA10-AA9-AA8-AA7-AA6-AA5-AA4-AA3-(L)AA2-OH)) [M6324 (AA10-AA9-AA8-AA7-AA6-AA5-AA4-AA3-(L)AA2-OH)] ? 882
